# Test system: MCF7 breast
# ASSAY DETAILS: NCI tumour cell line growth inhibition, 48 h
Recorded GI50, one value per entry.

Query: Could you share which GI50 value was measured for COC(=O)c1c2c(c(C)[n+]([O-])c1C)C(=O)C(NCc1ccc(OC)cc1)=CC2=O ?
Result: 1410 nM

Query: Then C=CCc1cccc(C=O)c1O ?
Result: 7900 nM

###

Recorded TGI, one value per entry.
# Test system: SW-620 colon
# ASSAY DETAILS: NCI tumour cell line growth inhibition, 48 h
Respond with the bare value in µM.

Examples with their reported TGI follow.
>>> df
                    structure_smiles_string  endpoint_name  test_result
0                           Cc1ccc(N)c(S)c1            TGI         38.7
1  NC(N)=N/N=C\c1c(-c2cccc([N+](=O)[O-])c2)nc2sccn12            TGI         5.43

Query: Could you share which TGI value was measured for CC(C)(CN1CCCCC1)C(=O)/C=C/c1ccccc1 ?
Result: 27.8
